From: ChEMBL document CHEMBL4706580

- assay_notes: Binding affinity to beta-lactamase VIM-2 expressed in Escherichia coli BL21(DE3) assessed as change in entropy at 25 degC by isothermal titration calorimetry
Hi there, I'd appreciate the recorded -TdeltaS for every entry that follows.
Kindly answer with a numeric value in kcal/mol, unit omitted.

For reference, reported -TdeltaS for O=C(O)c1ccccc1/C=N/n1c(-c2ccc3ccccc3c2)n[nH]c1=S stands at 5.1

For reference, reported -TdeltaS for Oc1ccc(/C=N/n2c(-c3ccccc3O)n[nH]c2=S)c(O)c1 stands at -2.1

For reference, reported -TdeltaS for Cc1ccccc1-c1n[nH]c(=S)n1/N=C/c1ccc(O)c(C(=O)O)c1 stands at -1.1

For reference, reported -TdeltaS for O=C(O)c1ccccc1/C=N/n1c(-c2cccc(-c3ccccc3)c2)n[nH]c1=S stands at 2.6

For reference, reported -TdeltaS for O=C(O)c1ccccc1/C=N/n1c(-c2ccccc2)n[nH]c1=S stands at 4.9

For reference, reported -TdeltaS for Oc1ccc(/C=N/n2c(-c3cccc(Br)c3)n[nH]c2=S)c(O)c1 stands at -1.6

For reference, reported -TdeltaS for O=C(O)c1ccccc1/C=N/n1c(-c2cc(Cl)cc(Cl)c2)n[nH]c1=S stands at 4.3

For reference, reported -TdeltaS for COc1ccc(O)c(-c2n[nH]c(=S)n2/N=C/c2ccccc2C(=O)O)c1 stands at 2.4
